- Test system: NCI-H1975
- ASSAY_OVERVIEW: Antiproliferative activity against human NCI-H1975 cells at 10 uM after 72 hrs by MTS assay
- Type: functional
OBSERVATION_TYPE: Activity
Don't forget the unit after the number, please.

Reference set, count: 6
>  <SUBSTANCE_SMILES>
O=C1Nc2ncccc2/C1=C/c1ccccc1C(F)(F)F

>  <ASSAY_SYSTEM>
NCI-H1975

>  <Activity>
31.12%

$$$$
>  <SUBSTANCE_SMILES>
Cn1cc(/C=C2/C(=O)Nc3ncccc32)c2ccccc21

>  <ASSAY_SYSTEM>
NCI-H1975

>  <Activity>
38.04%

$$$$
>  <SUBSTANCE_SMILES>
CCn1c2ccccc2c2cc(/N=C3/C(=O)Nc4ccc(Cl)cc43)ccc21

>  <ASSAY_SYSTEM>
NCI-H1975

>  <Activity>
59.78%

$$$$
>  <SUBSTANCE_SMILES>
O=CN1CCN(c2ccc(/C=C3\C(=O)Nc4ncccc43)cc2)CC1

>  <ASSAY_SYSTEM>
NCI-H1975

>  <Activity>
23.51%

$$$$
>  <SUBSTANCE_SMILES>
COc1cc(OC)c(/C=C2\C(=O)Nc3ncccc32)c(OC)c1

>  <ASSAY_SYSTEM>
NCI-H1975

>  <Activity>
66.49%

$$$$
>  <SUBSTANCE_SMILES>
O=C1Nc2ccc(Cl)cc2/C1=C/c1c[nH]c2ncccc12

>  <ASSAY_SYSTEM>
NCI-H1975

>  <Activity>
48.72%

$$$$

Input: Quick one: give measured Activity for Nc1nc(N2CCOCC2)ccc1/N=C1\C(=O)Nc2ccc(Cl)cc21
Output: 56.34%

Input: Consider the molecule Cc1cc2cc(/N=C3\C(=O)Nc4ccc(Cl)cc43)ccc2[nH]1 and give its recorded Activity.
Output: 26.35%

Input: For C=CC(=O)N1CCN(c2ccc(/C=C3\C(=O)Nc4ccccc43)cc2)CC1 , write its Activity.
Output: 60.01%

Input: Determine from records and report Activity for O=C1Nc2ccc(Cl)cc2/C1=N/NC(=O)c1ccc(N2CCOCC2)c([N+](=O)[O-])c1
Output: 17.93%

Input: For the molecule O=C1Nc2ccccc2/C1=C/c1ccc(N2CCOCC2)cc1 , give its measured Activity value.
Output: 28.96%

----------
- Test system: A549
- ASSAY_OVERVIEW: Antiproliferative activity against human A549 cells at 10 uM after 72 hrs by MTS assay
- Assay type: functional
Entries and their Activity values follow.
Note: a bare number is incomplete; add the unit.

Please review the entries below; each comes with its answer.
>  <SUBSTANCE_SMILES>
Cc1cc2cc(/N=C3\C(=O)Nc4ccc(Cl)cc43)ccc2[nH]1

>  <RESULT>
7.35%

$$$$
>  <SUBSTANCE_SMILES>
O=C1Nc2ccc(Cl)cc2/C1=N/c1ccc2nc(S)[nH]c2c1

>  <RESULT>
11.87%

$$$$
>  <SUBSTANCE_SMILES>
COc1cc(OC)c(/C=C2\C(=O)Nc3ncccc32)c(OC)c1

>  <RESULT>
39.96%

$$$$
>  <SUBSTANCE_SMILES>
Cn1cc(/C=C2/C(=O)Nc3ncccc32)c2ccccc21

>  <RESULT>
11.36%

$$$$
>  <SUBSTANCE_SMILES>
O=C1Nc2ccc(Cl)cc2/C1=N/c1ccc2ncccc2c1

>  <RESULT>
33.82%

$$$$

Input: Please supply the value of reported Activity for the item Nc1nc(N2CCOCC2)ccc1/N=C1\C(=O)Nc2ccc(Cl)cc21
Output: 34.07%

Input: Name the recorded Activity of the item C=CC(=O)N1CCN(c2ccc(/C=C3\C(=O)Nc4ccccc43)cc2)CC1 in your answer.
Output: 50.28%

Input: // Input: O=C1Nc2ccc(Cl)cc2/C1=N/NC(=O)c1ccc(N2CCOCC2)c([N+](=O)[O-])c1 . Output its Activity only.
Output: 7.93%

Input: Answer with the recorded Activity for the compound listed here: CCn1c2ccccc2c2cc(/N=C3/C(=O)Nc4ccc(Cl)cc43)ccc21
Output: 26.46%

Input: Please give the documented Activity of O=C1Nc2ncccc2/C1=C/c1ccccc1C(F)(F)F
Output: 11.09%

Input: Respond only with Activity recorded for CCOC(=O)c1ccc(/N=C2\C(=O)Nc3ccc(Cl)cc32)c(Nc2cc(OC)cc(OC)c2)c1
Output: 32.9%
